This collection of values is drawn from paper PMC11249646.

Molecular target: CIB1 and αIIb interaction (CIB1-GST : F-αIIb peptide) (Homo sapiens, UniProt Q99828)
Construct: made in house; host or cells: BL-21 plus RIL cells (E. coli)
Assay: FP assay, 1536-well qHTS format (primary and confirmatory screen)
Assay type: binding
Conditions: qHTS FP screen hits, Table S2; read-out: IC50
property_label: pIC50
Just the number, please; pIC50 means minus log10 of the concentration in mol/L.

Return reported pIC50; argument: COc1ccccc1Nc1ccc2c(O)cc(S(=O)(=O)O)cc2c1.O=C(O)C(F)(F)F [NCGC00372954-01] 4.45

Also need CC1=C(O)C(=O)C=C2C1=CC=C1[C@@]2(C)CC[C@@]2(C)[C@@H]3C[C@](C)(C(=O)O)CC[C@]3(C)CC[C@]12C [NCGC00178913-04] , thanks. 4.47

Subsequent entry: O=c1nc(-c2ccccn2)sc2ccccc12 [NCGC00387147-01] 4.55

Also O=C(O)c1cnn(-c2nc3cc(Cl)c(OC(F)(F)F)cc3[nH]2)c1 [NCGC00484069-01] ? 4.55

Proceed to CC[S+]([O-])c1nc(-c2cccc(OCc3ccccc3)c2)cc(C(F)(F)F)n1 (centres unmarked) [NCGC00379201-03] 5.66

Can you handle Br.CCCCCCCCCCCCCCCC[N+](C)(C)C.[Br-] [NCGC00164283-07] next? 4.10

Same thing, different compound: O=C(O)C(F)(F)F.Oc1cccc2cc(C3CC3)cnc12 [NCGC00188747-01] 4.50

Could you do the same for O=C(O)C(F)(F)F.O=c1c2ccccc2nc2sc(Nc3cccc(N4CCN5CCCCC5C4)c3)nn12 (centres unmarked) [NCGC00189229-01] , please? 5.60

###

Target: CIB1 and αIIb interaction (CIB1-GST : F-αIIb peptide) (Homo sapiens)
Construct: made in house; host or cells: BL-21 plus RIL cells (E. coli)
Test: FP assay, 1536-well qHTS format (primary and confirmatory screen)
Assay type: binding
Settings: qHTS primary screen hits, Table S2; negative = inhibition
What Efficacy (%) was measured for each of the following?
Give the value, in units of %, as a plain number.

Look at this compound and give its reported Efficacy (%). COc1cccc2c1C(=O)c1c(O)c3c(c(O)c1C2=O)C[C@@](O)(C(=O)CO)C[C@@H]3O[C@H]1C[C@H](N)[C@@H](O)[C@H](C)O1 -58

Same again, this time with CC(OC(=O)c1ccc(S(C)(=O)=O)c([N+](=O)[O-])c1)C(=O)NC1C2CC3CC(C2)CC1C3 (stereo not shown) -30

Cc1ccccc1C(=O)c1no[n+]([O-])c1C(=O)c1ccccc1C.O=C(O)C(F)(F)F , same question. -19

Can you check CSC(Cc1ccc(Cl)cc1)C(=O)Nc1ccc(Cl)cc1C(=O)O.O=C(O)C(F)(F)F (stereo not shown) next? -23

Try this compound too: O=C(c1ccc(F)cc1)c1no[n+]([O-])c1C(=O)c1ccc(F)cc1 -58

Then CC(=O)Nc1sc2c(c1-c1nc3ccccc3s1)CCN(C(C)C)C2 ? -54

And CC(C)c1nc(Nc2nc3ccccc3o2)nc2c1CCCC2.O=C(O)C(F)(F)F ? -19

###

Please go through the items and note down their Curve Class.
Target: CIB1 and αIIb interaction (CIB1-GST : F-αIIb peptide) (Homo sapiens, UniProt Q99828)
Construct: made in house; host or cells: BL-21 plus RIL cells (E. coli)
Experiment: FP assay, 1536-well qHTS format (primary and confirmatory screen)
Type: binding
Conditions: qHTS primary screen hits, Table S2; negative sign = inhibitory curve
# output: bare number, no unit

What measured Curve Class goes with O=C([O-])CCNc1cc(N2CCc3ccccc3CC2)nc(-c2ccccn2)n1.[Na+] ? -2.4

How about this compound: O=C(O)C1=NC(C(=O)O)CC(/C=C/N2c3cc(O)c(OC4OC(CO)C(O)C(O)C4O)cc3CC2C(=O)O)=C1 (stereo not shown) -2.4

Please do the same for COc1ccc(NS(=O)(=O)c2ccc(N)cc2)nn1 as well. -3

Field entry: O=C(O)C(F)(F)F.O=c1c2ccccc2nc2sc(NS(=O)(=O)c3ccc4c(c3)CCC4)nn12 -1.4

###

Target: CIB1 and αIIb interaction (CIB1-GST : F-αIIb peptide) (Homo sapiens, UniProt Q99828)
Construct: made in house; host or cells: BL-21 plus RIL cells (E. coli)
Sequence (Q99828 1-191): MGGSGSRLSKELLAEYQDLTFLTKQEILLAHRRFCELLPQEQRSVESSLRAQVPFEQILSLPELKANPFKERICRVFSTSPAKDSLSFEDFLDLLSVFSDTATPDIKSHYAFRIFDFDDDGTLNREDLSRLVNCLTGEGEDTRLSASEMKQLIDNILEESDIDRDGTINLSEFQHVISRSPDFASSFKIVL
Assay: FP assay, 1536-well qHTS format (primary and confirmatory screen)
Format: binding
Details: Table S3, confirmatory screen, qHTS curve class; a negative sign marks inhibitory curves
The threshold is inclusive: Curve Class (confirmatory screen) of exactly -1 counts as label 1; values below receive label 0.

# bool: Curve Class (confirmatory screen) of CN(CC(=O)Nc1ccc(N2CCOCC2)cc1)Cc1c(O)ccc2ccccc12.O=C(O)C(F)(F)F [NCGC00229682-01] >= -1 label 1

Try this compound next: CCC(C)Cn1c(O)cc2nn(-c3nc4ccccc4s3)c(=O)c-2c1C.O=C(O)C(F)(F)F (stereo not shown) [NCGC00386995-01] label 0

Same thing, different compound: CCCCCCCCCCCCCCCC[N+](C)(C)CCN(Cc1ccc(OC)cc1)c1ncccn1.[Br-] [NCGC00016507-05] label 1

Let us now turn to OCc1ccc(-c2ccc(-c3ccc(CO)s3)o2)s1 [NCGC00159570-01] label 1

Try Cc1c2c(=O)n(-c3ccccc3)[nH]c2cc(=O)n1-c1cccnc1.O=C(O)C(F)(F)F [NCGC00248472-01] next. label 1

Now try CCc1ccc(NC(=O)C(=O)NNC(=O)c2cccs2)cc1.O=C(O)C(F)(F)F [NCGC00244112-01] . label 1

// next record Cc1coc2c1C(=O)C(=O)c1c-2ccc2c1CCCC2(C)C [NCGC00095709-08] label 0

Next: CN(C)CCCNC(=O)c1ccc(-c2cc(O)c3ncccc3c2)cc1 [NCGC00183808-06] label 1

And then O=C(O)C(F)(F)F.O=S(=O)(NCc1nccs1)c1ccc(Nc2nc(-c3ccccc3)cs2)cc1 [NCGC00262383-01] , what is it? label 0

Item: O=C(O)C(F)(F)F.O=C1Nc2ccccc2/C1=N/NC(=S)Nc1ccc(Oc2ccccc2)cc1 [NCGC00229524-01] label 0

Repeat for the following compound: C=C1C(=O)OC2C(OC(=O)C=C(C)C)C(C)=C3C(=O)C=C(C)C3C(O)C12 (stereo not shown) [NCGC00380563-01] label 0

Now try NC(=O)c1cccc(-c2cnc3c(O)ccc(C(=O)O)c3c2)c1.O=C(O)C(F)(F)F [NCGC00241055-01] . label 1

Consider next the compound O=C1c2cccc(O)c2C(=O)c2c(O)cc(CO)cc21 [NCGC00163510-03] in the same way. label 1

Can you handle OC[C@H]1O[C@@H](Oc2ccc(O)c3cccc(O)c23)[C@H](O)[C@@H](O)[C@@H]1O [NCGC00385147-01] next? label 0

Can you check Cn1cnc(-c2nccc3c(O)nc(OCCCC(F)(F)F)nc23)c1.O=C(O)C(F)(F)F [NCGC00381768-02] next? label 1

Now consider CC(=O)c1c(O)cc2cccc3c2c1CC(C)(O)O3 (stereo not shown) [NCGC00381142-01] . label 0

###

Target: CIB1 and αIIb interaction (CIB1-GST : F-αIIb peptide) (Homo sapiens)
Construct: made in house; host or cells: BL-21 plus RIL cells (E. coli)
Sequence (Q99828 1-191): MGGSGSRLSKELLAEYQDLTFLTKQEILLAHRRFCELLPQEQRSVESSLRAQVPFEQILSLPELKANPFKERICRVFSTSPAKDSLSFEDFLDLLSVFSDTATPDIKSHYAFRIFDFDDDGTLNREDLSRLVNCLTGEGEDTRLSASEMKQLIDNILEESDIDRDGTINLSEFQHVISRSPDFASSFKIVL
Experiment: FP assay, 1536-well qHTS format (primary and confirmatory screen)
Format: binding
Conditions: confirmatory screen
Each entry gets condition not met if its Efficacy (%) (confirmatory screen) stays under -70%, and condition met if its Efficacy (%) (confirmatory screen) is -70% or above.

Check this molecule for Efficacy (%) (confirmatory screen) at or above -70%: CCOC(=O)C1CCN(C(=O)C(C)(C)NC(=O)Nc2ccc(C#N)cc2)CC1.O=C(O)C(F)(F)F condition met

Here is the next molecule: Nc1nc2c(s1)C(c1ccc(F)cc1F)CC(=O)N2 (stereo not shown) condition met

Cool, now CCNC(=O)c1ccc(-c2ccc3ncnc(N4CCOCC4)c3c2)o1.O=C(O)C(F)(F)F condition met

# iterate: Cc1cc(/N=N/c2ccc(S(=O)(=O)Nc3ccccn3)cc2)c(N)cc1O condition met

One more molecule: O=C1C[C@@](c2ccc(N3CCOCC3)cc2)(c2ccsc2)NC(=O)C1Sc1ccccc1Cl (stereo partly shown) condition met

Next entry: O=C(O)C(F)(F)F.O=C1Nc2ccccc2/C1=N/NC(=S)Nc1ccccc1 condition met

Also O=C(O)CSc1cc(NS(=O)(=O)c2ccc(Br)cc2)c2ccccc2c1O , if possible. condition not met

Further, for O=c1c(O)c(-c2ccc(O)c(O)c2)oc2cc(O)cc(O)c12 ? condition met

Request: N#Cc1ccc(NS(=O)(=O)c2ccc(Nc3nc(-c4ccccc4)cs3)cc2)cc1.O=C(O)C(F)(F)F condition not met

Entry CCOC(=O)CC(SP(=S)(OC)OC)C(=O)OCC (stereo not shown) please condition not met

Also Cc1ccc(CNc2ncnc3ccc(-c4ccc([C@@H](C)O)o4)cc23)o1 , if possible. condition met

And what about the molecule Cc1cc(SCc2sc(-c3ccc(Cl)c(Cl)c3)nc2C)ccc1OCC(=O)O.O=C(O)C(F)(F)F ? condition not met

And then CN1C[C@H](CNC(=O)OCc2ccccc2)C[C@@H]2c3cccc4c3c(cn4C)C[C@H]21 , what is it? condition not met

Note, next up: O=C(Nc1nc(-c2ccccc2)cs1)c1ccncc1NS(=O)(=O)c1cccs1.O=C(O)C(F)(F)F condition not met
